src = patent US20200347133A1

# Study Target: T1, CD33M, full length human CD33 protein expressed on transfected cells (human, UniProt P20138 18-303)
# T1 construct: also called full length CD33
# T1 sequence (P20138 18-303): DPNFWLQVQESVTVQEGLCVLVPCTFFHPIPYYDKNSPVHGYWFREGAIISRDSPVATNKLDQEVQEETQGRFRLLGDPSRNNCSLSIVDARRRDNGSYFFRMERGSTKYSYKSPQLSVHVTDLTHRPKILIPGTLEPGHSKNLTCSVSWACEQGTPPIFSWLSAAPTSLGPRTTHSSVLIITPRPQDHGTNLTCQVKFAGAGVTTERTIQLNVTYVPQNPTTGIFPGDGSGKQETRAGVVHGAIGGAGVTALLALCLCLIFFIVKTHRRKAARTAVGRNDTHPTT
# Assay Overview: flow cytometry on cells transfected with CD33M; apparent Kd, one-site fit
Assay Endpoint: pKd
# log scale: pKd equals minus log10 of the concentration in mol/L

# Binder, Value
records = [
    ("A07 sdAb (A07 VHH domain fused to human IgG1 xELL Fc region) (Fc fusion, VHH-Fc; no linker stated) QVQLVQSGGGLVQAGGSLTLSCAASRSSGIDVMGWYRQAPGKERELVAEISGVGDTNYAASLADRFTVSRDNAKNTVYLQMKNLKPEDTAVYYCNAHSFLDLVGAWGQGTQVTVDKTHTCPPCPAPGGPSVFLFPPKPKDTLMISRTPEVTCVVVDVSHEDPEVKFNWYVDGVEVHNAKTKPREEQYNSTYRVVSVLTVLHQDWLNGKEYKCKVSNKALPAPIEKTISKAKGQPREPQVYTLPPSRDELTKNQVSLTCLVKGFYPSDIAVEWESNGQPENNYKTTPPVLDSDGSFFLYSKLTVDKSRWQQGNVFSCSVMHEALHNHYTQKSLSLSPGK", 7.27),
    ("hz1C7v11 sdAb (hz1C7v11 VHH domain fused to human IgG1 xELL Fc region) (Fc fusion, VHH-Fc; no linker stated; also called hz1C7v11-IgG1) EVQLVESGGGEVQPGGSLRLSCAASGRTFSGYIMGWFRQAPGKERELVARISGNNLATEYAESVKGRFTISRDNAKNTLYLQMSSLRAEDTAVYYCAAEYDYSSGDFVYWGQGTLVTVDKTHTCPPCPAPGGPSVFLFPPKPKDTLMISRTPEVTCVVVDVSHEDPEVKFNWYVDGVEVHNAKTKPREEQYNSTYRVVSVLTVLHQDWLNGKEYKCKVSNKALPAPIEKTISKAKGQPREPQVYTLPPSRDELTKNQVSLTCLVKGFYPSDIAVEWESNGQPENNYKTTPPVLDSDGSFFLYSKLTVDKSRWQQGNVFSCSVMHEALHNHYTQKSLSLSPGK", 8.26),
    ("1H9 sdAb (1H9 VHH domain fused to human IgG1 xELL Fc region) (Fc fusion, VHH-Fc; no linker stated; also called 1H9-IgG1) EVQLQQSGGAVVQPGGSLRLSCAASGSIFSISIMGWYRQAPGKERELVASTTSSGTTNYVDSVKGRFTASRDNAKNTVYLQMNSLKPDDTAIYHCHAYIATTTDRGYRGYWGQGTQVTVDKTHTCPPCPAPGGPSVFLFPPKPKDTLMISRTPEVTCVVVDVSHEDPEVKFNWYVDGVEVHNAKTKPREEQYNSTYRVVSVLTVLHQDWLNGKEYKCKVSNKALPAPIEKTISKAKGQPREPQVYTLPPSRDELTKNQVSLTCLVKGFYPSDIAVEWESNGQPENNYKTTPPVLDSDGSFFLYSKLTVDKSRWQQGNVFSCSVMHEALHNHYTQKSLSLSPGK", 9.85),
    ("hz1E4v2 sdAb (hz1E4v2 VHH domain fused to human IgG1 xELL Fc region) (Fc fusion, VHH-Fc; no linker stated; also called hz1E4v2-IgG1) EVQLVESGGGEVQPGGSLRLSCAASGSGFSASLMSWHRQAPGKQRDLVASITRDGRANYVESVKGRFTISRDNAKNTLYLQMSSLRAEDTAVYYCHAYSFDYPIRSYWGQGTLVTVDKTHTCPPCPAPGGPSVFLFPPKPKDTLMISRTPEVTCVVVDVSHEDPEVKFNWYVDGVEVHNAKTKPREEQYNSTYRVVSVLTVLHQDWLNGKEYKCKVSNKALPAPIEKTISKAKGQPREPQVYTLPPSRDELTKNQVSLTCLVKGFYPSDIAVEWESNGQPENNYKTTPPVLDSDGSFFLYSKLTVDKSRWQQGNVFSCSVMHEALHNHYTQKSLSLSPGK", 9.49),
    ("hzF02v18 sdAb (hzF02v18 VHH domain fused to human IgG1 xELL Fc region) (Fc fusion, VHH-Fc; no linker stated; also called hzF02v18-IgG1) EVQLVESGGGEVQPGGSLRLSCAASGSISSYNVMGWYRQAPGKQRELVAQINAYGDTNYANAVVGRFTISRDNAKNTVYLQMSSLRAEDTAVYYCNGQRMLENYTYRDQSWGQGTLVTVDKTHTCPPCPAPGGPSVFLFPPKPKDTLMISRTPEVTCVVVDVSHEDPEVKFNWYVDGVEVHNAKTKPREEQYNSTYRVVSVLTVLHQDWLNGKEYKCKVSNKALPAPIEKTISKAKGQPREPQVYTLPPSRDELTKNQVSLTCLVKGFYPSDIAVEWESNGQPENNYKTTPPVLDSDGSFFLYSKLTVDKSRWQQGNVFSCSVMHEALHNHYTQKSLSLSPGK", 7.83),
]

Please turn your attention to the following entry.
Which pKd is reported for this binder? 1E4 sdAb (1E4 VHH domain fused to human IgG1 xELL Fc region) (Fc fusion, VHH-Fc; no linker between VHH and Fc is stated; also called 1E4-IgG1) QVQLQQSGGGSVQAGGSLRLSCVASGSGFSASLMSWHRQAPGSQRDLVASITRDGRANYVDSVKDRFTISRDNAKNTAYLQMDSLKPEDTAAYYCHAYSFDYPIRSYWGQGTQVTVDKTHTCPPCPAPGGPSVFLFPPKPKDTLMISRTPEVTCVVVDVSHEDPEVKFNWYVDGVEVHNAKTKPREEQYNSTYRVVSVLTVLHQDWLNGKEYKCKVSNKALPAPIEKTISKAKGQPREPQVYTLPPSRDELTKNQVSLTCLVKGFYPSDIAVEWESNGQPENNYKTTPPVLDSDGSFFLYSKLTVDKSRWQQGNVFSCSVMHEALHNHYTQKSLSLSPGK
10.30
